B1: glmS ribozyme (parent)
chain: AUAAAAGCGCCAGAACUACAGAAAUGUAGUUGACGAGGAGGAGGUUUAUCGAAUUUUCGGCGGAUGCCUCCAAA

Variants of: B1
Procedure Summary: self-cleavage kobs at 160 uM GlcN6P; higher = faster cleavage; RNA array
Settings: with glucosamine-6-phosphate
Fewer inactive variants are shown than the library holds.
Outcome Measure: self-cleavage kobs at 160 uM GlcN6P

Sample answers from the record:
A12G A39U A53C    < 1e-05 s⁻¹
U31G G35U    < 1e-05 s⁻¹

Please find the next variant below.
In: Consider the variant shown here: C16A C34A What is its recorded self-cleavage kobs at 160 uM GlcN6P?
Out: < 1e-05 s⁻¹
